// data source = patent US20230011269A1

Experiment: Phase 1 single dose study, immediate release formulations: plasma pharmacokinetics
Assay type: in vivo, human
Conditions: male, human, plasma, oral, 5 mg, 5 mg single dose, Fasted, 1 × 5 mg tablet, Group 4, N = 6; Geomean; read-out: AUC0-24
readoutName: AUC(0-t) (ng·h/mL)
Answer with a number only, understood to be in ng·h/mL.

stdin: For the molecule CC(C)(Sc1ccncc1-c1ccc(C#N)c2ccccc12)C(=O)O , what AUC(0-t) is on record?
stdout: 102

---

Test: Phase 1 single dose study, immediate release formulations: plasma pharmacokinetics
Assay type: in vivo, human
Details: male, human, plasma, oral, 20 mg, 20 mg single dose, Fed, 1 × 20 mg tablet, Group 3, N = 6; Geomean; read-out: AUC0-24
readoutName: AUC(0-t) (ng·h/mL)
Answer with a number only, understood to be in ng·h/mL.

stdin: For the compound CC(C)(Sc1ccncc1-c1ccc(C#N)c2ccccc12)C(=O)O , what AUC(0-t) is on record?
stdout: 350
